# ASSAYED TARGET: T1, PACAP-R3 (human, UniProt P41587 24-438)
# T1 sequence (looked up): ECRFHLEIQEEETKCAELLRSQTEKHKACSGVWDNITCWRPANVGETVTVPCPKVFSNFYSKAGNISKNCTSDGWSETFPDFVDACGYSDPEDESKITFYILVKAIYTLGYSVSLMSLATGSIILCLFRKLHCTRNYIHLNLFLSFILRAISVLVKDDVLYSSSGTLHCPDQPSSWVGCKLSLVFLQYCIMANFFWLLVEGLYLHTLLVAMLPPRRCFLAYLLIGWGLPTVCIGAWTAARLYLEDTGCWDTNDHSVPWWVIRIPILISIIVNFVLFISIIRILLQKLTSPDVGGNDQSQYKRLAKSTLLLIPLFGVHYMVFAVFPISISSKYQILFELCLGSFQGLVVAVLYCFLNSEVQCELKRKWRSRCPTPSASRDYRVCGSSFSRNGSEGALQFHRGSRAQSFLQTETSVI
# ASSAY NAME: cell-based or functional assay
READOUT NAME: R3 EC50 (nM)
Give a bare numeral; the unit nM is implied.

The value of R3 EC50 measured for the binder HSDAVFTDNYTRLRKQMAAKKYLNSIKNKD [R3P153] turned out to be 0.2

The value of R3 EC50 measured for the binder HSDAVFTDNYTRLRKQMAAKKYLNSIYNKR [R3P132] turned out to be 0.2

The value of R3 EC50 measured for the binder HSDAVFTDNYTRLRKQMAAKKYLNSIGNKR [R3P120] turned out to be 0.2
